B1: GST-tagged USP8 MIT domain (1-142) [human] / DBP 116-131 peptide, cellulose-bound (SPOT array) [human] (parent complex)
chain 1: MPAVASVPKELYLSSSLKDLNKKTEVKPEKISTKSYVHSALKIFKTAEECRLDRDEERAYVLYMKYVTVYNLIKKRPDFKQQQDYFHSILGPGNIKKAVEEAERLSESLKLRYEEAEVRKKLEEKDRQEEAQRLQQKRQETG
chain 2: YVDLDAFLLEHGLPPS

Variants of: B1
Experiment: SPOT array alanine scanning; read off a plot
measure name: screen value

{"var": "chain 2 L4A", "screen value": "~-52%"}

Give the measured screen value for chain 2 H11A
~-79%

Give the measured screen value for chain 2 P14A
~-5%

Give the measured screen value for chain 2 F7A
~-72%

Give the measured screen value for chain 2 D3A
~-84%

Give the measured screen value for chain 2 D5A
~-100%

Give the measured screen value for chain 2 Y1A
~110%

Give the measured screen value for chain 2 P15A
~19%

Give the measured screen value for chain 2 S16A
~12%
